Target: T1, HLA-DRB1*1501 (human)
T1 construct: purified MHC class II molecule; also called DR2w2β1
Assay: competition with 125I-labelled standard peptide, purified HLA-DR, gel filtration
pIC50: −log10 of the molar value.
readout kind: pIC50

>>> assay_value("DEAYVMAGVGSPYVS [Her2/neu.769]")
5.50

Hey, just so you know, these numbers are from patent US20040018971A1.
